This collection of values is drawn from patent US12030891B2.

System: Artemia salina
Assay: Artemia salina lethality bioassay
Format: in vivo
Details: even at 50 μM, 48 h of exposure
Assay endpoint: toxicity to Artemia salina nauplii

Take a look at these entries with their results.
COc1cc(CN2CCCCC2)c2c(=O)c3ccccc3oc2c1OC :: non-toxic effects
CC1(C)CCc2cc3c(=O)c4ccccc4oc3c(O)c2O1 :: non-toxic effects
COc1cc(C(Br)Br)c2c(=O)c3ccccc3oc2c1OC :: non-toxic effects
O=c1c2ccccc2oc2c(O)c(O)ccc12 [3,4dOHx, 3,4-dihydroxy-9H-xanthen-9-one] :: non-toxic effects
O=C(O)COc1ccc2c(=O)c3ccccc3oc2c1OCC(=O)O :: non-toxic effects
COC(=O)COc1ccc2c(=O)c3ccccc3oc2c1OCC(=O)OC :: non-toxic effects
COc1cc(CN2CCN(CCO)CC2)c2c(=O)c3ccccc3oc2c1OC :: non-toxic effects
COc1cc(CO)c2c(=O)c3ccccc3oc2c1OC :: non-toxic effects

Could you tell me which toxicity to Artemia salina nauplii is on file for COc1cc(C=O)c2c(=O)c3ccccc3oc2c1OC ?
non-toxic effects

May I ask what toxicity to Artemia salina nauplii has been recorded for COc1cc(CNCCN2CCOCC2)c2c(=O)c3ccccc3oc2c1OC ?
non-toxic effects
